Tested target: CB2 receptor (Homo sapiens, UniProt P34972)
Construct: expressed in transfected cells
Sequence (P34972 whole entry): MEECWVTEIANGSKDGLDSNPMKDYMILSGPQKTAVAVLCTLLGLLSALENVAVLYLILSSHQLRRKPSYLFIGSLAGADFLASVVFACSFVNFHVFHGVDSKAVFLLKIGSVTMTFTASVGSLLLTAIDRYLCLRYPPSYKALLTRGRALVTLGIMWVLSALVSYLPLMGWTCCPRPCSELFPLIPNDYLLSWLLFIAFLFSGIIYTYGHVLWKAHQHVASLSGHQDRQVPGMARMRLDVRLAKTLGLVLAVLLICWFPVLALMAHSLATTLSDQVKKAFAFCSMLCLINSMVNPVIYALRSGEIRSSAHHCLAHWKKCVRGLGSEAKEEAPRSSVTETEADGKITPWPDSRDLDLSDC
Experimental protocol: Binding assay for CB2 agonists or inverse agonists (SK-N-MC membranes, [3H]-CP-55,940)
Setup conditions: read-out: CB2 receptor binding percent inhibition, test concentration 0.2 μM (footnote 2)
Assay endpoint: inhibition at 0.2 µM (%)
Give the value, in units of %, as a plain number.

Request: Entry O=C(NN1CCCCC1)c1nn(-c2ccc(Cl)cc2Cl)c2c1CCCC/C2=C\c1ccc(F)cc1 : reported inhibition at 0.2 µM = ?
Response: 3

More entries:
Request: Entry under review: C[C@H](NC(=O)c1nn(-c2ccc(Cl)cc2Cl)c2c1CCCC/C2=C\c1ccc(Cl)cc1)c1ccccc1 . Reported inhibition at 0.2 µM?
Response: 30

Request: Name the reported inhibition at 0.2 µM value associated with the compound COc1ccc(/C=C2\CCCCc3c(C(=O)NC(C)c4ccccn4)nn(-c4ccc(Cl)cc4Cl)c32)cc1 (stereo not shown)
Response: 41

Request: Item under review: C[C@@H](NC(=O)c1nn(-c2ccccc2Cl)c2c1CCCC/C2=C\c1ccc(Cl)cc1)c1ccccc1 . Reported inhibition at 0.2 µM?
Response: 12

Request: Request the reported inhibition at 0.2 µM associated with COC(=O)[C@H](Cc1ccc(F)cc1)NC(=O)c1n[nH]c2c1CCCC/C2=C\c1cccc(Cl)c1
Response: 78

Request: Requested read-out: inhibition at 0.2 µM. Entry: O=C(N[C@@H]1CCc2ccccc21)c1nn(-c2ccc(Cl)cc2Cl)c2c1CCCC/C2=C\c1ccc(F)cc1
Response: 1

Request: What value of measured inhibition at 0.2 µM is listed for COc1ccc(/C=C2\CCCCc3c(C(=O)NN4CCCCC4)nn(-c4ccc(Cl)cc4Cl)c32)cc1 ?
Response: 52

Request: Consider the compound COc1ccc(/C=C2\CCCCc3c(C(=O)NC(C)(C)c4ccccc4)nn(-c4ccc(Cl)cc4Cl)c32)cc1 and give its measured inhibition at 0.2 µM.
Response: 37

----------
Tested target: CB1 receptor (Homo sapiens)
Construct: expressed in transfected cells
Experimental protocol: Binding assay for CB1 agonists or inverse agonists (SK-N-MC membranes, [3H]-CP-55,940)
Setup conditions: Cannabinoid CB1 Receptor Binding IC50, calculated by linear regression from percent inhibition at various test concentrations
Assay endpoint: pIC50
In textbook form, pIC50 equals minus log to base ten of the concentration in mol/L.

Worked cases, answers included:
Request: What value of pIC50 has been reported for the following compound? C[C@H](NS(=O)(=O)/C=C/c1nn(C2CCCCC2)c2c1CCCCC2Cc1cccc(F)c1)c1ccccc1 (stereo partly shown)
Response: 6.70

Request: Quick check: pIC50 of C[C@@H](NC(=O)c1nn(-c2ccccc2Cl)c2c1CCCC/C2=C\c1ccc(Cl)cc1)C1CCCCC1 ?
Response: 7.30

Request: Give the measured pIC50 of COc1ccc(/C=C2\CCCCc3c(C(=O)NC(C)c4ccccn4)nn(-c4ccc(Cl)cc4Cl)c32)cc1 (stereo not shown) .
Response: 7.52

Others:
Request: Recorded pIC50 of CC12CCC(C1)C(C)(C)[C@H]2NC(=O)c1nn(-c2ccc(F)cc2F)c2c1CCCCC2Cc1cccc(F)c1 (stereo partly shown) , please.
Response: 7.00

----------
Tested target: CB1 receptor (Homo sapiens, UniProt P21554)
Construct: expressed in transfected cells
Sequence (P21554 whole entry): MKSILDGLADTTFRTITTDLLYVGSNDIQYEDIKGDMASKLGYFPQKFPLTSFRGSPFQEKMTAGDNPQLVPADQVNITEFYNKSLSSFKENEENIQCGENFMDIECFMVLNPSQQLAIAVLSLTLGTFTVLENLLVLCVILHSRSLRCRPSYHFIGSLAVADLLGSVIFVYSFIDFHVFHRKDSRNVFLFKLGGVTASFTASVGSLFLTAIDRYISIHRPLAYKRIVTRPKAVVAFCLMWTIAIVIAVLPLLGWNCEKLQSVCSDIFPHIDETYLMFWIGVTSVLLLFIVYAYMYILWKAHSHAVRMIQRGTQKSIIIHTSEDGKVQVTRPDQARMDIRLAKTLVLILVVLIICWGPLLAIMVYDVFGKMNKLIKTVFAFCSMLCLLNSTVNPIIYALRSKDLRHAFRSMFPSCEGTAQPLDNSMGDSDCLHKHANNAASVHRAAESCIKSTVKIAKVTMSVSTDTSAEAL
Experimental protocol: Binding assay for CB1 agonists or inverse agonists (SK-N-MC membranes, [3H]-CP-55,940)
Setup conditions: Cannabinoid CB1 Receptor Binding IC50, calculated by linear regression from percent inhibition at various test concentrations
pIC50 values by entry
pIC50 field: float, defined as -log10 of concentration (mol/L).

Request: Please report the recorded pIC50 for C[C@@H](NC(=O)c1nn(-c2ccc(S(N)(=O)=O)cc2)c2c1CCCC/C2=C\c1ccc(Cl)cc1)c1ccccc1 .
Response: 7.30

Request: Which value of pIC50 has been reported for C[C@H](NS(=O)(=O)/C=C/c1n[nH]c2c1CCCCC2Cc1cccc(F)c1)c1ccccc1 (single isomer, unassigned) in the records?
Response: 6.52

Request: Item under review: O=C(c1nn(-c2ccc(Cl)cc2Cl)c2c1CCCC/C2=C\c1ccc(F)cc1)N1CCCC1c1ccccn1 (stereo not shown) . Reported pIC50?
Response: 7.00

***
Request: For the compound COC(=O)[C@H](Cc1ccc(F)cc1)NC(=O)c1n[nH]c2c1CCCC/C2=C\c1cccc(Cl)c1 , what pIC50 is on record?
Response: 6.70

----------
Entries annotated with measured EC50
Tested target: CB1 receptor (Homo sapiens, UniProt P21554)
Construct: expressed in transfected cells
Experimental protocol: Modified functional cell-based assay (Beta-Glo luminescence), CB1 receptor
Setup conditions: CB1 EC50 (Receptor Functional Activity), one sample per compound, Cpd 237 n=3

Answered examples (4):
Request: Hi! What's the reported EC50 for O=C(N[C@H](CO)c1ccccc1)c1n[nH]c2c1CCCCC2Cc1cccc(Cl)c1 (single isomer, unassigned) [Cpd 230] on CB1 receptor (Homo sapiens, UniProt P21554)?
Response: > 1 µM

Request: Give CB1 receptor (Homo sapiens, UniProt P21554) EC50 for C[C@H](NS(=O)(=O)/C=C/c1n[nH]c2c1CCCC/C2=C\c1ccc(Cl)cc1)c1ccccc1
Response: 3.6 µM

Request: API: value(readout= EC50, system= CB1 receptor (Homo sapiens, UniProt P21554), query= O=C(N[C@H](CO)c1ccccc1)c1n[nH]c2c1CCCCC2Cc1cccc(Cl)c1 (some centres unmarked) [Cpd 164] )
Response: > 1 µM

Request: What measured EC50 is associated with C[C@H](NS(=O)(=O)/C=C/c1n[nH]c2c1CCCCC2Cc1cccc(F)c1)c1ccccc1 (single isomer, unassigned) [Cpd 232] on CB1 receptor (Homo sapiens, UniProt P21554)?
Response: ~3.2 µM

Okay, next one:
Request: What measured EC50 is associated with C[C@H](NS(=O)(=O)/C=C/c1n[nH]c2c1CCCCC2Cc1cccc(F)c1)c1ccccc1 (single isomer, unassigned) [Cpd 233] on CB1 receptor (Homo sapiens, UniProt P21554)?
Response: ~4.4 µM

----------
Tested target: CB1 receptor (Homo sapiens, UniProt P21554)
Construct: expressed in transfected cells
Experimental protocol: Binding assay for CB1 agonists or inverse agonists (SK-N-MC membranes, [3H]-CP-55,940)
Setup conditions: read-out: CB1 receptor binding percent inhibition, test concentration 1 μM (footnote 1)
Assay endpoint: inhibition at 1 µM (%)
Answer with a number only, understood to be in %.

As a guide, the following entries are already answered.
Request: Any idea what its inhibition at 1 µM is? The compound is O=C(N[C@@H]1c2ccccc2C[C@@H]1O)c1nn(C2CCCCC2)c2c1CCCC[C@@H]2Cc1ccc(F)cc1 [Cpd 120]
Response: 9

Request: Which inhibition at 1 µM is reported for this compound? C[C@H](NC(=O)c1nn(C2CCCCC2)c2c1CCCCC2Cc1ccc(F)cc1)c1ccccc1 (stereo partly shown) [Cpd 64]
Response: 51

Request: Requested field: inhibition at 1 µM. Item: C[C@H](NS(=O)(=O)/C=C/c1nn(C)c2c1CCCCC2Cc1cccc(F)c1)c1ccccc1 (stereo partly shown) [Cpd 104]
Response: 19

We next turn to a different compound, shown below.
Request: Look at this compound and give its reported inhibition at 1 µM. O=C(NC12CC3CC(CC(C3)C1)C2)c1nn(C2CCCCC2)c2c1CCCCC2Cc1ccc(Cl)cc1 (stereo not shown) [Cpd 20]
Response: 4

----------
Entries and their measured EC50 follow.
Tested target: CB2 receptor (Homo sapiens, UniProt P34972)
Construct: expressed in transfected cells
Experimental protocol: Functional cell-based assay, CB2 receptor mediated change in CRE β-gal expression (SK-N-MC cells)
Setup conditions: CB2 Receptor Functional Agonist EC50, forskolin induced β-galactosidase activity, SK-N-MC cells
Answer format: number, then unit.

Worked cases, answers included:
Request: # returns recorded EC50 (system: CB2 receptor (Homo sapiens, UniProt P34972)) for COC[C@H](NC(=O)c1n[nH]c2c1CCCC[C@H]2Cc1cccc(Cl)c1)c1ccccc1 (stereo in doubt)
Response: 200 nM

Request: Can you look up EC50 on CB2 receptor (Homo sapiens, UniProt P34972) for Cn1nc(C(=O)N[C@H](CO)Cc2ccc(O)cc2)c2c1/C(=C/c1cccc(F)c1)CCCC2 ?
Response: 5 nM

Request: # query: EC50 | item COC[C@@H](NC(=O)c1n[nH]c2c1CCCC[C@@H]2Cc1cccc(Cl)c1)c1ccccc1 (stereo in doubt) | system: CB2 receptor (Homo sapiens, UniProt P34972)
Response: 3 nM

---
Request: Param readout = EC50; param system = CB2 receptor (Homo sapiens, UniProt P34972); param query = Cn1nc(C(=O)N[C@@H](CO)c2ccccc2)c2c1/C(=C/c1cccc(F)c1)CCCC2 ; response: value
Response: 11 nM
